Molecular target: HGFR (Homo sapiens)
Construct: purchased Upstate 14-526
Assay: HGFR continuous-coupled spectrophotometric assay
Type: biochemical
Conditions: at 1 pM; Table 7, library procedure 42; read-out: % Inhibition (percent c-MET inhibition)
Entries annotated with measured inhibition at 1 pM
attribute.measured: inhibition at 1 pM (%)

{"compound": "Cc1cc(=O)n2nc(COc3cc(-c4ccc(C(=O)N5CCC(N6CCCC6)CC5)cc4)cnc3N)nc2[nH]1", "number": 18}
{"compound": "Nc1ncc(-c2ccc(C(=O)N3CCC(N4CCCC4)CC3)cc2)cc1OCc1cccc(C(=O)NC2CCN(Cc3ccccc3)C2)c1 (stereo not drawn)", "number": 13}
{"compound": "Nc1ncc(-c2ccc(C(=O)N3CCC(N4CCCC4)CC3)cc2)cc1OCc1cccnc1", "number": 17}
{"compound": "Nc1ncc(-c2ccc(C(=O)N3CCC(N4CCCC4)CC3)cc2)cc1OCc1cn2cccnc2n1", "number": 16}
{"compound": "Nc1ncc(-c2ccc(C(=O)N3CCC(N4CCCC4)CC3)cc2)cc1OCc1cccc(CO)n1", "number": 15}
{"compound": "Nc1ncc(-c2ccc(C(=O)N3CCC(N4CCCC4)CC3)cc2)cc1OCc1cc(-c2ccc(Cl)cc2)no1", "number": 23}
{"compound": "Nc1ncc(-c2ccc(C(=O)N3CCC(N4CCCC4)CC3)cc2)cc1OCc1cc(F)cc(F)c1", "number": 14}
{"compound": "CS(=O)(=O)c1ccc(COc2cc(-c3ccc(C(=O)N4CCC(N5CCCC5)CC4)cc3)cnc2N)cc1", "number": 11}
{"compound": "Cc1oc(-c2ccccc2)nc1COc1cc(-c2ccc(C(=O)N3CCC(N4CCCC4)CC3)cc2)cnc1N", "number": 19}
{"compound": "Cc1ccnc2nc(COc3cc(-c4ccc(C(=O)N5CCC(N6CCCC6)CC5)cc4)cnc3N)cn12", "number": 10}
{"compound": "Nc1ncc(-c2ccc(C(=O)N3CCC(N4CCCC4)CC3)cc2)cc1OCc1ccc(C(F)(F)F)nc1", "number": 13}
{"compound": "Nc1ncc(-c2ccc(C(=O)N3CCC(N4CCCC4)CC3)cc2)cc1OCc1cscn1", "number": 12}

----------
Biological target: HGFR (Homo sapiens, UniProt P08581)
Construct: purchased Upstate 14-526
Sequence (P08581 974-1390 limits assumed): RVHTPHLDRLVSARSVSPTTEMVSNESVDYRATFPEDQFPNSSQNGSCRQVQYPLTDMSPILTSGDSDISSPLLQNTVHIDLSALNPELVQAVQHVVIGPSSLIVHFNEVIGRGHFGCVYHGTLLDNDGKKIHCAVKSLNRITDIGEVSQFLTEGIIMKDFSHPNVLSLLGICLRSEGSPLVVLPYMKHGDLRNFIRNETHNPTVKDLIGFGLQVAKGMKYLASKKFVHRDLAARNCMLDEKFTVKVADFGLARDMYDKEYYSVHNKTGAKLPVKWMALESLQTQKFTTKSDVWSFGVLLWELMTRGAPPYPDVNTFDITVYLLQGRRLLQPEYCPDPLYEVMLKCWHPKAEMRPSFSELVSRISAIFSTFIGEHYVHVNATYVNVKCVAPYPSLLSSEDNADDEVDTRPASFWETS
Experiment: HGFR continuous-coupled spectrophotometric assay
Format: biochemical
Details: at 1 pM; Table 7, library procedure 42; read-out: % Inhibition (percent c-MET inhibition)
attribute.measured: inhibition at 1 pM (%)

{"smiles.code": "COc1cc(OC)nc(COc2cc(-c3ccc(C(=O)N4CCC(N5CCCC5)CC4)cc3)cnc2N)n1", "measurement.target": "HGFR (Homo sapiens, UniProt P08581)", "display.unit": "%", "number": 20}
{"smiles.code": "Cc1cc(C)cc(COc2cc(-c3ccc(C(=O)N4CCC(N5CCCC5)CC4)cc3)cnc2N)c1", "measurement.target": "HGFR (Homo sapiens, UniProt P08581)", "display.unit": "%", "number": 14}
{"smiles.code": "Nc1ncc(-c2ccc(C(=O)N3CCC(N4CCCC4)CC3)cc2)cc1OCc1ccncc1", "measurement.target": "HGFR (Homo sapiens, UniProt P08581)", "display.unit": "%", "number": 10}
{"smiles.code": "Nc1ncc(-c2ccc(C(=O)N3CCC(N4CCCC4)CC3)cc2)cc1OCc1cccc(Cl)c1Cl", "measurement.target": "HGFR (Homo sapiens, UniProt P08581)", "display.unit": "%", "number": 40}
{"smiles.code": "CCOC(=O)C1CCN(C(=O)c2ccc(COc3cc(-c4ccc(C(=O)N5CCC(N6CCCC6)CC5)cc4)cnc3N)cc2)CC1", "measurement.target": "HGFR (Homo sapiens, UniProt P08581)", "display.unit": "%", "number": 16}
{"smiles.code": "Cc1nc(COc2cc(-c3ccc(C(=O)N4CCC(N5CCCC5)CC4)cc3)cnc2N)n(C)n1", "measurement.target": "HGFR (Homo sapiens, UniProt P08581)", "display.unit": "%", "number": 14}
{"smiles.code": "Nc1ncc(-c2ccc(C(=O)N3CCC(N4CCCC4)CC3)cc2)cc1OCc1cccc(Cl)c1F", "measurement.target": "HGFR (Homo sapiens, UniProt P08581)", "display.unit": "%", "number": 28}
{"smiles.code": "Nc1ncc(-c2ccc(C(=O)N3CCC(N4CCCC4)CC3)cc2)cc1OCc1ccc(C(=O)NCCN2CCCC2)cc1", "measurement.target": "HGFR (Homo sapiens, UniProt P08581)", "display.unit": "%", "number": 10}
{"smiles.code": "Nc1ncc(-c2ccc(C(=O)N3CCC(N4CCCC4)CC3)cc2)cc1OCc1ncc(C(F)(F)F)cc1Cl", "measurement.target": "HGFR (Homo sapiens, UniProt P08581)", "display.unit": "%", "number": 8}
